Test system: Rattus norvegicus
Assay: Induction of diuresis in Rattus norvegicus albino (rat) assessed as urinary Cl- excretion at 20 mg/kg, po measured at 5-18 hr after drug administration by standard Lipschitz method (reference value: 0.38 +/-0.011 mEq/L)
Assay type: functional, Urine
readout_label: Activity

[[record]]
compound = "COc1cc(C2CC(c3ccc(Cl)cc3)=NN2C(=O)c2ccc(C)cc2)ccc1OCC(=O)O (stereo not drawn)"
assayed_system = "Rattus norvegicus"
result = "2.69 mEq/L"

[[record]]
compound = "COc1cc(C2CC(c3ccc(O)cc3O)=NN2C(=O)COc2ccccc2)ccc1OCC(=O)O (stereo not drawn)"
assayed_system = "Rattus norvegicus"
result = "1.69 mEq/L"

[[record]]
compound = "COc1cc(C2CC(c3ccc(Cl)cc3)=NN2C(=O)c2ccc(Cl)cc2)ccc1OCC(=O)O (stereo not drawn)"
assayed_system = "Rattus norvegicus"
result = "1.77 mEq/L"


* * *

Tested on: Rattus norvegicus
Test: Induction of diuresis in Rattus norvegicus albino (rat) assessed as urinary K+ excretion at 20 mg/kg, po measured at 5-18 hr after drug administration by standard Lipschitz method (reference value: 0.22 +/-0.004 mEq/L)
Assay type: functional, Urine
readout_label: Activity (mEq/L)

[[record]]
compound = "COc1cc(C2CC(c3ccc(Cl)cc3)=NN2C(=O)COc2ccc(C)cc2)ccc1OCC(=O)O (stereo not given)"
readout_unit = "mEq/L"
result = 1.87

[[record]]
compound = "NS(=O)(=O)c1cc(C(=O)O)c(NCc2ccco2)cc1Cl [FUROSEMIDE]"
readout_unit = "mEq/L"
result = 3.11

[[record]]
compound = "COc1cc(C2CC(c3ccc(Cl)cc3)=NN2C(=O)COc2ccccc2)ccc1OCC(=O)O (stereo not given)"
readout_unit = "mEq/L"
result = 1.96

[[record]]
compound = "COc1cc(C2CC(c3ccc(O)cc3)=NN2C(=O)COc2ccc(C)cc2)ccc1OCC(=O)O (stereo not given)"
readout_unit = "mEq/L"
result = 0.19

[[record]]
compound = "COc1cc(C2CC(c3ccc(Cl)cc3)=NN2C(=O)c2ccc(Cl)cc2)ccc1OCC(=O)O (stereo not given)"
readout_unit = "mEq/L"
result = 1.76


* * *

Test system: Rattus norvegicus
Assay: Induction of diuresis in Rattus norvegicus albino (rat) assessed as urinary excretion at 20 mg/kg, po measured at 5-18 hr after drug administration by standard Lipschitz method (reference value: 50.4%)
Type: functional, Urine
Below is a list of entries, each paired with its recorded Activity value.
readout_label: Activity (%)

[[record]]
compound = "COc1cc(C2CC(c3ccc(Cl)cc3)=NN2C(=O)COc2ccc(C)cc2)ccc1OCC(=O)O (centres undefined)"
readout_unit = "%"
result = 284.96

[[record]]
compound = "NS(=O)(=O)c1cc(C(=O)O)c(NCc2ccco2)cc1Cl [FUROSEMIDE]"
readout_unit = "%"
result = 247.63

[[record]]
compound = "COc1cc(C2CC(c3ccc(O)cc3)=NN2C(=O)c2ccc(Cl)cc2)ccc1OCC(=O)O (centres undefined)"
readout_unit = "%"
result = 183.45

[[record]]
compound = "COc1ccc(C2=NN(C(=O)COc3ccccc3)C(c3ccc(OCC(=O)O)c(OC)c3)C2)cc1 (centres undefined)"
readout_unit = "%"
result = 190.49

[[record]]
compound = "COc1cc(C2CC(c3ccc(Cl)cc3)=NN2C(=O)c2ccc(Cl)cc2)ccc1OCC(=O)O (centres undefined)"
readout_unit = "%"
result = 278

[[record]]
compound = "COc1cc(C2CC(c3ccc(O)cc3)=NN2C(=O)COc2ccc(C)cc2)ccc1OCC(=O)O (centres undefined)"
readout_unit = "%"
result = 11.45

[[record]]
compound = "COc1cc(C2CC(c3ccc(O)cc3O)=NN2C(=O)COc2ccccc2)ccc1OCC(=O)O (centres undefined)"
readout_unit = "%"
result = 279.19

[[record]]
compound = "COc1cc(C2CC(c3ccc(Cl)cc3)=NN2C(=O)Cc2ccccc2)ccc1OCC(=O)O (centres undefined)"
readout_unit = "%"
result = 219.36

[[record]]
compound = "COc1cc(C2CC(c3ccc(Cl)cc3)=NN2C(=O)c2ccc(C)cc2)ccc1OCC(=O)O (centres undefined)"
readout_unit = "%"
result = 466.66


* * *

System: Rattus norvegicus
Assay: Induction of diuresis in Rattus norvegicus albino (rat) assessed as urinary excretion at 20 mg/kg, po measured at 5-18 hr after drug administration by standard Lipschitz method (reference value: 50.4%)
Assay type: functional, Urine
readout_label: Activity (%)

[[record]]
compound = "COc1cc(C2CC(c3ccc(Cl)cc3)=NN2C(=O)COc2ccccc2)ccc1OCC(=O)O (stereo not drawn)"
readout_unit = "%"
result = 345.91

[[record]]
compound = "COc1ccc(C2=NN(C(=O)c3ccc(Cl)cc3)C(c3ccc(OCC(=O)O)c(OC)c3)C2)cc1 (stereo not drawn)"
readout_unit = "%"
result = 8.07

[[record]]
compound = "COc1cc(C2CC(c3ccccc3)=NN2C(=O)c2ccccc2O)ccc1OCC(=O)O (stereo not drawn)"
readout_unit = "%"
result = 8.54


* * *

System: Rattus norvegicus
Experiment: Induction of diuresis in Rattus norvegicus albino (rat) assessed as urinary Cl- excretion at 20 mg/kg, po measured at 5-18 hr after drug administration by standard Lipschitz method (reference value: 0.38 +/-0.011 mEq/L)
Type: functional, Urine
Response field label: string, one of yes (1) (Activity strictly below 0.07 mEq/L) or no (0).

[[record]]
molecule = "COc1cc(C2CC(c3ccc(Cl)cc3)=NN2C(=O)Cc2ccccc2)ccc1OCC(=O)O (centres undefined)"
class_label = "no (0)"

[[record]]
molecule = "COc1ccc(C2=NN(C(=O)c3ccc(Cl)cc3)C(c3ccc(OCC(=O)O)c(OC)c3)C2)cc1 (centres undefined)"
class_label = "yes (1)"

[[record]]
molecule = "NS(=O)(=O)c1cc(C(=O)O)c(NCc2ccco2)cc1Cl [FUROSEMIDE]"
class_label = "no (0)"

[[record]]
molecule = "COc1cc(C2CC(c3ccc(Cl)cc3)=NN2C(=O)COc2ccccc2)ccc1OCC(=O)O (centres undefined)"
class_label = "no (0)"

[[record]]
molecule = "COc1cc(C2CC(c3ccccc3)=NN2C(=O)c2ccccc2O)ccc1OCC(=O)O (centres undefined)"
class_label = "yes (1)"

[[record]]
molecule = "COc1ccc(C2=NN(C(=O)COc3ccccc3)C(c3ccc(OCC(=O)O)c(OC)c3)C2)cc1 (centres undefined)"
class_label = "no (0)"

[[record]]
molecule = "COc1cc(C2CC(c3ccc(Cl)cc3)=NN2C(=O)COc2ccc(C)cc2)ccc1OCC(=O)O (centres undefined)"
class_label = "no (0)"

[[record]]
molecule = "COc1cc(C2CC(c3ccc(O)cc3)=NN2C(=O)c2ccc(Cl)cc2)ccc1OCC(=O)O (centres undefined)"
class_label = "no (0)"


* * *

Below is a list of entries, each paired with its recorded Activity value.
Tested on: Rattus norvegicus
Experiment: Induction of diuresis in Rattus norvegicus albino (rat) assessed as normal saline intake at 20 mg/kg, po measured at 0-5 hr after drug administration by standard Lipschitz method (reference value: 2.50 +/-0.036 ml)
Assay type: functional
readout_label: Activity

[[record]]
molecule = "COc1cc(C2CC(c3ccc(Cl)cc3)=NN2C(=O)COc2ccccc2)ccc1OCC(=O)O (configuration not stated)"
result = "2.94 mL"

[[record]]
molecule = "COc1ccc(C2=NN(C(=O)c3ccc(Cl)cc3)C(c3ccc(OCC(=O)O)c(OC)c3)C2)cc1 (configuration not stated)"
result = "2.85 mL"

[[record]]
molecule = "COc1cc(C2CC(c3ccc(Cl)cc3)=NN2C(=O)Cc2ccccc2)ccc1OCC(=O)O (configuration not stated)"
result = "2.84 mL"

[[record]]
molecule = "COc1cc(C2CC(c3ccc(Cl)cc3)=NN2C(=O)COc2ccc(C)cc2)ccc1OCC(=O)O (configuration not stated)"
result = "2.86 mL"

[[record]]
molecule = "COc1cc(C2CC(c3ccc(O)cc3)=NN2C(=O)COc2ccc(C)cc2)ccc1OCC(=O)O (configuration not stated)"
result = "2.88 mL"

[[record]]
molecule = "COc1ccc(C2=NN(C(=O)COc3ccccc3)C(c3ccc(OCC(=O)O)c(OC)c3)C2)cc1 (configuration not stated)"
result = "2.84 mL"

[[record]]
molecule = "COc1cc(C2CC(c3ccc(Cl)cc3)=NN2C(=O)c2ccc(Cl)cc2)ccc1OCC(=O)O (configuration not stated)"
result = "2.67 mL"

[[record]]
molecule = "COc1cc(C2CC(c3ccc(O)cc3)=NN2C(=O)c2ccc(Cl)cc2)ccc1OCC(=O)O (configuration not stated)"
result = "2.84 mL"

[[record]]
molecule = "COc1cc(C2CC(c3ccccc3)=NN2C(=O)c2ccccc2O)ccc1OCC(=O)O (configuration not stated)"
result = "2.34 mL"

[[record]]
molecule = "NS(=O)(=O)c1cc(C(=O)O)c(NCc2ccco2)cc1Cl [FUROSEMIDE]"
result = "2.75 mL"

[[record]]
molecule = "COc1cc(C2CC(c3ccc(Cl)cc3)=NN2C(=O)c2ccc(C)cc2)ccc1OCC(=O)O (configuration not stated)"
result = "2.61 mL"

[[record]]
molecule = "COc1cc(C2CC(c3ccc(O)cc3O)=NN2C(=O)COc2ccccc2)ccc1OCC(=O)O (configuration not stated)"
result = "2.74 mL"

